The reported numbers originate from ChEMBL document CHEMBL1135283.

molecular target: Carbonic anhydrase 1 (Homo sapiens); test: Tested in vitro for activation of Human cloned isozyme carbonic anhydrase I (hCA I)
Where a SMILES comes first, the peptide text is derived from it.
observable: KA (µM)
Lab book: enter the figure in µM, no units written.

Here are 3 molecules together with their reported answers.
{"molecule": "N[C@@H](CC(=O)O)C(=O)N[C@@H](CC(=O)O)C(=O)O (H-Asp-Asp-OH)", "KA, µM": 39}
{"molecule": "C[C@H](NC(=O)[C@@H](N)CC(=O)O)C(=O)N[C@@H](CC(=O)O)C(=O)N[C@@H](CC(=O)O)C(=O)O (H-DADD-OH)", "KA, µM": 36}
{"molecule": "C[C@H](N)C(=O)N[C@@H](C)C(=O)O (H-Ala-Ala-OH)", "KA, µM": 50}

// switching to the query molecule
# query: KA of entry C[C@H](NC(=O)[C@@H](N)CC(=O)O)C(=O)O (H-Asp-Ala-OH)
40
